- target system: T1, recombinant human PD-1 Fc chimera (human, UniProt Q15116 25-167)
- T1 construct: Bought protein; also called human PD-1-huFc; huPD-1-Fc; not shown: human Fc
- T1 sequence (Q15116 25-167 limits assumed, change not shown): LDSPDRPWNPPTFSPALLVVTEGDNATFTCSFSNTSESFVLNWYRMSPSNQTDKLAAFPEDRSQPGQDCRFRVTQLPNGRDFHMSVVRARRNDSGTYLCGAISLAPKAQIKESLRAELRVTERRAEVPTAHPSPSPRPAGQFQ
- experiment description: SPR Biacore T200, PD-1-huFc amine-coupled, single cycle kinetics
measured property: koff (s⁻¹)

Illustrative cases are given below, each with its answer.
Reported koff for Humabody® 1.92 (VHH, human VH single domain antibody) VHH: EVQLVESGGGLVKPGGSLRLSCAASGFTFSDESMTWMRQAPGKGLEWVSYISSGGGVKFYADSVKGRFTISRDNAKNSLYLQMNSLRAEDTAVYYCAREAPLRLGESPHDAFDISGQGTMVTVSS was 3.67e-05

The binder Humabody® 1.48 (VHH, human VH single domain antibody) VHH: QVQLVESGGGLVKPGGSLRLSCAASGFTFSDSSMTWMRQAPGKGLEWVSYISSGGGVKFYADSVKGRFTISRDNAKNSLYLQMNSLRADDTAVYYCAREAPLRLGESPHDAFDIWGQGTMVTVSS showed koff equal to 5.24e-05

Sample Humabody® 1.1 (VHH, human VH single domain antibody; also called VH single domain antibody 1.1; clone 1.1) VHH: QVQLVESGGGLVKPGGSLRLSCAASGFTFSDYTMTWMRQAPGKGLEWVSYISTGGTIKYYTDSVKGRFTISRDNAKNSLYLQMNSLRADDTAVYYCAREAPLRLGESPHDAFDIWGQGTMVTVSS ; koff observed: 7.35e-05

Lab note: Humabody® 1.49 (VHH, human VH single domain antibody) VHH: QVQLVESGGGLVKPGGSLRLSCAASGFTFSDSSMSWMRQAPGKGLEWVSYISTGGGVKFYADSVKGRFTISRDNAKNSLYLQMNSLRADDTAVYYCAREAPLRLGESPHDAFDIWGQGTMVTVSS gave koff of 2.89e-05

Per the record, Humabody® 1.54 (VHH, human VH single domain antibody) VHH: QVQLVESGGGLVKPGGSLRLSCAASGFTFSDDSMTWMRQAPGKGLEWVSYISSGGGVIFYADSVKGRFTISRDNAKNSLYLQMNSLRADDTAVYYCAREAPLRLGESPHDAFDIWGQGTMVTVSS has koff of 4.53e-05

Sample Humabody® 1.42 (VHH, human VH single domain antibody) VHH: QVQLVESGGGLVKPGGSLRLSCAASGFTFSDNSMTWMRQAPGKGLEWVSYISSGGGVKFYADSVKGRFTISRDNAKNSLYLQMNSLRADDTAVYYCAREAPLRLGESPHDAFDIWGQGTMVTVSS ; koff observed: 2.69e-05

[I] Humabody® 1.43 (VHH, human VH single domain antibody) VHH: QVQLVESGGGLVKPGGSLRLSCAASGFTFSDSSMTWMRQAPGKGLEWVSYISSGGGVIFYADSVKGRFTISRDNAKNSLYLQMNSLRADDTAVYYCAREAPLRLGESPHDAFDIWGQGTMVTVSS
[II] Humabody® 1.56 (VHH, human VH single domain antibody) VHH: QVQLVESGGGLVKPGGSLRLSCAASGFTFSDNSMTWMRQAPGKGLEWVSYISSGGAVKFYADSVKGRFTISRDNAKNSLYLQMNSLRADDTAVYYCAREAPLRLGESPHDAFDILGQGTMVTVSS
Returns: the argument ( I or II ) having the larger koff. Choose, then provide that item's label. I
(I: 2.79e-05 s⁻¹, II: 1.53e-05 s⁻¹)
